TARGET OR TEST SYSTEM: UniProt:Q9H7B4
Sequence (Q9H7B4 whole entry): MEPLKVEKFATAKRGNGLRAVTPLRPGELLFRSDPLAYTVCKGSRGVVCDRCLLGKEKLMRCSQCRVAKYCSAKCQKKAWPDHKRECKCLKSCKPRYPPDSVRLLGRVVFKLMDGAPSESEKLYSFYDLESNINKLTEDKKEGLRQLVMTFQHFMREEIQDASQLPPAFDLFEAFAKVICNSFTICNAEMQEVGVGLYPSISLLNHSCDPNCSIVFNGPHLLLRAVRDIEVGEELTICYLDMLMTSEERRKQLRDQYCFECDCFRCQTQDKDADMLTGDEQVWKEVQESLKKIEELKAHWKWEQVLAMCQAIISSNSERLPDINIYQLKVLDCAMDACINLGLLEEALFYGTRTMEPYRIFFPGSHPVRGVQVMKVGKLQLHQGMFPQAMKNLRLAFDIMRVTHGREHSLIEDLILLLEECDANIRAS
METHOD: SMYD3 biochemical assay (MTase-Glo, MAP3K2 peptide substrate)
EXPERIMENTAL SETUP: Table 3; MTase assay, MAP3K2 peptide substrate; read-out: IC50
pIC50: −log10 of the molar value.
// not fulfilled strictly below 7 in pIC50; fulfilled otherwise

In: Is it the case that CCCOC(=O)N1CCN(C(=O)c2ccc3c(Cl)cc(-c4cccnc4)nc3c2)CC1 has pIC50 reaching or exceeding 7?
Out: not fulfilled

In: Is it the case that CCCOC(=O)N1CCN(C(=O)c2ccc3c(Cl)c(C)c(-c4ccc(C)cc4)nc3c2)[C@H](C)C1 has pIC50 reaching or exceeding 7?
Out: not fulfilled

In: Is it the case that CCCOC(=O)N1CCN(C(=O)c2ccc3c(Cl)cc(-c4cnn(CC(F)(F)F)c4)nc3c2)C[C@H]1C has pIC50 reaching or exceeding 7?
Out: fulfilled

In: Is it the case that CCCOC(=O)N1CCN(C(=O)c2ccc3c(Cl)cc(-c4cccs4)nc3c2)C[C@H]1C has pIC50 reaching or exceeding 7?
Out: not fulfilled

In: Is it the case that CCCOC(=O)N1CCN(C(=O)c2ccc3c(Cl)c4c(nc3c2)CCC(CC(N)=O)C4)CC1 (stereo not shown) has pIC50 reaching or exceeding 7?
Out: not fulfilled

In: Is it the case that CCCOC(=O)N1CCN(C(=O)c2ccc3c(Cl)cc(-c4cccc(NC)c4)nc3c2)C[C@H]1C has pIC50 reaching or exceeding 7?
Out: fulfilled

In: Is it the case that CCCOC(=O)N1CCN(C(=O)c2ccc3c(Cl)cc(-c4ccc(F)c(CO)c4)nc3c2)CC1 has pIC50 reaching or exceeding 7?
Out: not fulfilled

In: Is it the case that CCCOC(=O)N1CCN(C(=O)c2ccc3c(Cl)cc(-c4ccc(COCC5CC5)cc4)nc3c2)CC1 has pIC50 reaching or exceeding 7?
Out: not fulfilled

In: Is it the case that CCCOC(=O)N1CCN(C(=O)c2ccc3c(Cl)cc(C4CC4)nc3c2)C[C@H]1C has pIC50 reaching or exceeding 7?
Out: fulfilled

In: Is it the case that C#Cc1ccc(C2CCc3c(nc4cc(C(=O)N5CCN(C(=O)OCCC)[C@H](C)C5)ccc4c3Cl)C2)nc1 (stereo partly shown) has pIC50 reaching or exceeding 7?
Out: not fulfilled
